- Tested on: A549
- Assay remarks: Antiproliferative activity against human A549 cells at 10 uM after 24 hrs by MTS assay relative to control
- Format: functional
- Setup conditions: A549, 24 h
Readout kind: inhibition at 10 µM (%)
The reply should be a number in %, with the unit left off.

The following molecules have reported results that may help.
Molecule | inhibition at 10 µM (%)
O=C(/C=C/c1ccc(O)cc1)c1ccc(O)cc1O [ISOLIQUIRITIGENIN] | 8.3
CC1(C)C=Cc2cc(C[C@@H](O)C(=O)c3ccc(O)cc3O)ccc2O1 | 6.4
CC(C)=CCc1cc([C@H]2Oc3c(ccc4c3C=CC(C)(C)O4)C(=O)[C@@H]2O)ccc1O | 21.2

What measured inhibition at 10 µM goes with "CC(C)=CCc1cc([C@H]2Oc3cc(O)ccc3C[C@H]2O)ccc1O" ?
13.3

What measured inhibition at 10 µM goes with "COc1ccc([C@@H]2COc3c(ccc(O)c3CC=C(C)C)C2)c(O)c1O" ?
15.5

What measured inhibition at 10 µM goes with "CC(C)=CCc1cc(C[C@@H](O)C(=O)c2ccc(O)cc2O)ccc1O" ?
6.1

What measured inhibition at 10 µM goes with CC1(C)C=Cc2c(cc(O)c3c(=O)c(-c4ccc(O)cc4)coc23)O1 [DERRONE] ?
0

What measured inhibition at 10 µM goes with "CC1(C)C=Cc2c(cc(O)c3c(=O)c(-c4ccc(O)cc4O)coc23)O1" ?
4.3
